All figures here come from paper PMC9931176.

target: recombinant SARS-CoV-2 Mpro (Severe acute respiratory syndrome coronavirus 2, UniProt P0DTD1); test: SARS-CoV-2 Mpro inhibition assay (FRET-based proteolytic activity assay); assay type: biochemical; details: 0.2 μM enzyme, 20 μM substrate, compound 125 to 0 μM, 2.5% DMSO; read-out: IC50
observed-property: pIC50
Keep in mind that pIC50 stands for -log10 of concentration in molar terms.

Requested read-out: pIC50. Entry: C[C@@H]1O[C@@H](O[C@H]2[C@H](Oc3cc(O)c4c(=O)cc(-c5ccc(O)cc5)oc4c3)O[C@H](CO)[C@@H](O)[C@@H]2O)[C@H](O)[C@H](O)[C@H]1O 3.64
